assay_method_text: in vitro
Assay type: in vitro ADME, human
assay_setup: human, microsomes, pH 7.4
recorded_metric: half-life (t1/2)
For clarity, give the value followed by its unit.

// known answers, use as guide
compound	half-life (t1/2)
CC[C@@H](C)NC(=O)[C@@H]1C=C2c3cccc4[nH]cc(c34)C[C@H]2N(C)C1	64.9 min
CCC(CC)NC(=O)[C@@H]1C=C2c3cccc4[nH]cc(c34)C[C@H]2N(C)C1	17.593 min
CCN(CC)C(=O)[C@@H]1C=C2c3cccc4[nH]cc(c34)C[C@H]2N(C)C1 [LSD, lysergic acid diethylamide, reference compound]	71.6 min

Read the next record carefully.
### Prompt I am curious: what half-life (t1/2) value has been reported for CCC[C@@H](C)NC(=O)[C@@H]1C=C2c3cccc4[nH]cc(c34)C[C@H]2N(C)C1 ?
### Response 15.865 min
